Tested on: HCC-2998 colon
experiment description: NCI-60 one-dose screen, 48 h
condition details: 10 µM unless noted
This is part of a sample that, as a whole, favours compounds with a hit. Of some 83,000 tested, about 20% had one in any assay. Calls of active or inactive are those of the source. How the source made its calls: active means growth percent below 10; inactive means the rest.
Output constraint: value belongs to 1 (active), -1 (inactive)

Previously resolved entries follow.
1. Nc1nc2ccccc2c2c1S(=O)(=O)c1ccc(Cl)cc1C2=O = -1
2. CCOC(=O)c1cc(C(=O)c2cc(OC)c(OC)c(OC)c2)n2ncccc12 = -1

Now, please, on to the next molecule.
# input Returns: the outcome recorded for `Cn1cc(-c2nonc2-c2cn(C)c3ccccc23)c2ccccc21` in this assay.
# output -1

* * *

Tested on: UACC-62 melanoma
experiment description: NCI-60 one-dose screen, 48 h
condition details: 10 µM unless noted
Method: Growth inhibition of the UACC-62 human tumor cell line is measured as a screen for anti-cancer activity. Cells are grown in 96 well plates and exposed to the test compound for 48 hours. Compounds are tested at a single concentration, which is 10^-5 M for most compounds. The reported endpoint is percent growth (GI% or GIPRCNT), where numbers from 0 - 100% represent growth inhibition, and numbers from -100% - 0 represent cell death. For example, a value of 40 represents 60% growth inhibition. […]
Compounds without any hit were thinned out: in the full panel of roughly 83,000, 20% have a hit. Active and inactive are the calls of the source. How the source made its calls: active means growth percent below 10; inactive means the rest.
Output constraint: value belongs to True = active, False = inactive

1) O=S(=O)(Nc1cc(Cl)ccc1Cl)c1ccc(-c2cnc(C3CC3)o2)cc1 = False
2) CCOC(=O)c1csc(NC(=O)COc2ccc(/C=C3\Oc4ccccc4C3=O)cc2)n1 = False
3) Cc1c(-c2ccc(O)cc2)n(Cc2ccc(OCCN3CCCCCC3)cc2)c2ccc(O)cc12 = False
4) COC(=O)[C@]1(C)CCC[C@]2(C)[C@H]3C[C@H]4C(C(C)C)=C[C@]3(CC[C@H]21)[C@@H]1C(=O)CC[C@H](OCCC#N)[C@@H]14 = False
5) CC(C)c1ccc(-n2c(=S)[nH]c3sc4cc(O)ccc4c3c2=O)cc1 = False

# input Returns: the outcome recorded for `CC/C(=C(/c1ccc(Cl)cc1)c1ccc(OCCN2CCCCC2)cc1)c1ccc(OC)cc1` in this assay.
# output False

# input Returns: the outcome recorded for COC(=O)C1Cc2ccccc2CN1C(=O)c1ccc2c(c1)Cc1ccccc1-2 (configuration not stated) in this assay.
# output False

# input Returns: the outcome recorded for `Cn1cc(-c2csc(-c3cn(C(=O)OC(C)(C)C)c4ccc(Br)cc34)n2)c2ccnc(Cl)c21` in this assay.
# output False

# input Returns: the outcome recorded for `COc1ccc(F)cc1/C=C/C(=O)/C=C(/C=C/c1cc(F)ccc1OC)OB(F)F` in this assay.
# output False

# input Returns: the outcome recorded for `Oc1ccc(Cl)cc1/C=N\NC(=S)N/N=C/c1cc(Cl)ccc1O` in this assay.
# output True

# input Returns: the outcome recorded for `O=C1/C(=C/c2ccc([N+](=O)[O-])cc2)COc2ccc(O)cc21` in this assay.
# output False

# input Returns: the outcome recorded for CCOC(=O)C(=O)C(C(=O)OCC)c1ccccc1 (configuration not stated) in this assay.
# output False

# input Returns: the outcome recorded for `CCOC(=O)c1ccc2c(c1)nc(-c1ccccc1)n2C1CCCCC1` in this assay.
# output False

# input Returns: the outcome recorded for `N#CSc1c[nH]c2cccc(/C=C/C(=O)/C=C(/C=C/c3cccc4[nH]cc(SC#N)c34)OB(F)F)c12` in this assay.
# output True

# input Returns: the outcome recorded for `c1cnc2c(-c3nc4ccc5[nH]ncc5c4c4c3CCCC4)c[nH]c2c1` in this assay.
# output False

# input Returns: the outcome recorded for N#CSCC1CC(O)(c2ccccc2)CC(c2ccc(F)cc2)O1 (configuration not stated) in this assay.
# output False

# input Returns: the outcome recorded for `COc1ccc(C(=O)Nc2cccc(-c3cc(=O)c4c(OC)c(OC)c(OC)cc4o3)c2)cc1` in this assay.
# output False

# input Returns: the outcome recorded for `CCOC(=O)C/C(=N\Nc1cc(=O)[nH]c2ccc(Br)cc12)C(=O)OCC` in this assay.
# output False

# input Returns: the outcome recorded for `CC/C(=C(/c1ccc(Cl)cc1)c1ccc(OCCN(C)C)cc1)c1ccc(Cl)cc1` in this assay.
# output False

* * *

Answer each item with its documented growth.
Test system: CAKI-1 renal
experiment description: NCI-60 one-dose screen, 48 h (100 = growth as untreated, 0 = no growth, -100 = all killed)
condition details: 10 µM unless noted
This is part of a sample that, as a whole, favours compounds with a hit. Of some 83,000 tested, about 20% had one in any assay. Active and inactive are the calls of the source. The calls were made as follows: active = growth percent below 10; inactive = the rest.

Here are 2 compounds together with their reported answers.
1. CCOc1ccc(NC(=O)CSc2oc(-c3ccccc3)nc2S(=O)(=O)c2ccc(C)cc2)cc1 = 83.9% (inactive)
2. COc1ccc(Cc2cnc(NC(=O)c3cc(C)oc3C)s2)cc1 = 25.3% (inactive)

Looking up `Oc1ccc(Cl)cc1/C=N\NC(=S)N/N=C/c1cc(Cl)ccc1O` , I see its growth listed as -7.22% (active)

* * *

Tested on: CAKI-1 renal
experiment description: NCI-60 one-dose screen, 48 h
condition details: 10 µM unless noted
The panel holds about 83,000 compounds, 20% with a hit somewhere; the sample as a whole holds those more often. Active and inactive are the calls of the source. The calls were made as follows: active = growth percent below 10; inactive = the rest.
Output constraint: value belongs to true (1) (active), false (0) (inactive)

Previously resolved entries follow.
1) O=C(Nc1nc(-c2ccc(Cl)cc2)nc2c1sc(=S)n2-c1ccccc1)C(F)(F)F = false (0)
2) OB1OCc2cc(/C=C/c3cccc(C(F)(F)F)c3)ccc21 = true (1)
3) CCCOC(=O)Nc1nc2ccc(SCC(C)C)cc2s1 = false (0)
4) COc1ccc(Nc2nnc(-c3ccc(OC)c(OC)c3)o2)cc1 = false (0)
5) C=C1C(=O)O[C@H]2[C@H]1CC/C(COC(=O)C(=O)c1cn(C)c3ccc(Cl)cc13)=C\CC[C@@]1(C)O[C@@H]21 = true (1)

Now, please, on to the next compound.
# input Returns: the outcome recorded for `CC(=O)Oc1ccc(C)cc1C` in this assay.
# output false (0)

* * *

Test system: ACHN renal
experiment description: NCI-60 one-dose screen, 48 h
condition details: 10 µM unless noted
The panel holds about 83,000 compounds, 20% with a hit somewhere; the sample as a whole holds those more often. Active and inactive are the calls of the source. The calls were made as follows: active = growth percent below 10; inactive = the rest.
Output constraint: value belongs to class 1 = active, class 0 = inactive

1. COC(=O)C1Cc2ccccc2CN1C(=O)c1ccc2c(c1)Cc1ccccc1-2 (configuration not stated) = class 0
2. Cn1c(=O)c2nc(/C=C/c3ccccc3)c(=O)[nH]c2n(C)c1=S = class 0
3. O=C(Nc1nc(-c2ccc(Cl)cc2)nc2c1sc(=S)n2-c1ccccc1)C(F)(F)F = class 1

# input Returns: the outcome recorded for `Cc1ccc(NC(=O)Cn2cc(CN3CCN(c4ccnc5cc(Cl)ccc45)CC3)nn2)cc1` in this assay.
# output class 0

# input Returns: the outcome recorded for `CCOC(=O)c1nn(-c2ccc(S(N)(=O)=O)cc2)c2nc(C)cc(=O)n12` in this assay.
# output class 0

# input Returns: the outcome recorded for `CS(=O)(=O)Nc1cncc(-c2ccc3ncnc(Nc4cncc(Cl)c4)c3c2)c1` in this assay.
# output class 0

# input Returns: the outcome recorded for `O=C1/C(=C/c2cccc(F)c2)CN(C(=O)C(Cl)Cl)C/C1=C\c1cccc(F)c1` in this assay.
# output class 1

# input Returns: the outcome recorded for `O=C1/C(=C/c2ccc([N+](=O)[O-])cc2)COc2ccc(O)cc21` in this assay.
# output class 0

# input Returns: the outcome recorded for `COC(=O)c1cc(N=C2NC(=O)/C(=C/C=C/c3ccccc3)S2)ccc1O` in this assay.
# output class 0

* * *

Answer each item with its documented growth.
Tested on: PC-3 prostate
experiment description: NCI-60 one-dose screen, 48 h (100 = growth as untreated, 0 = no growth, -100 = all killed)
condition details: 10 µM unless noted
The panel holds about 83,000 compounds, 20% with a hit somewhere; the sample as a whole holds those more often.
Answers are plain numbers, in %.

1. CC/C(=C(/c1ccc(Cl)cc1)c1ccc(OCCN2CCCCC2)cc1)c1ccc(OC)cc1 = 30.9
2. O=C(/C=C/c1cn(-c2ccccc2)nc1-c1ccc(Cl)cc1)c1ccc(F)cc1 = 67.6

// switching to the query compound
Looking up `O=C(O)CCN1C(=O)/C(=C/C(Cl)=C/c2ccccc2)SC1=S` , I see its growth listed as 47

* * *

System: SK-OV-3 ovarian
experiment description: NCI-60 one-dose screen, 48 h
condition details: 10 µM unless noted
The panel holds about 83,000 compounds, 20% with a hit somewhere; the sample as a whole holds those more often. Calls of active or inactive are those of the source. The calls were made as follows: active = growth percent below 10; inactive = the rest.
Output constraint: value belongs to YES = active, NO = inactive

Previously resolved entries follow.
1. CS(=O)(=O)Nc1cc(-c2ccc3ncnc(Nc4ccc5c(cnn5Cc5cccc(F)c5)c4)c3c2)cnc1Cl = YES
2. C=C(C)[C@@H]1CC[C@]2(CO)CC[C@]3(C)[C@H](CC[C@@H]4[C@@]5(C)CC[C@H](NCO)C(C)(C)[C@@H]5CC[C@]43C)[C@@H]12 = YES

# input Returns: the outcome recorded for CC(=O)N1N=C(c2ccc(Nc3nc(Nc4ccccc4)nc(Nc4ccccc4)n3)cc2)CC1c1cccc([N+](=O)[O-])c1 (stereo unspecified) in this assay.
# output NO

# input Returns: the outcome recorded for `Cc1ccc(/C=C2\COc3ccc(O)cc3C2=O)cc1` in this assay.
# output NO

# input Returns: the outcome recorded for `C=CC(=O)N1CCN(c2cccc(Oc3nccc(Nc4nnc(-c5ccc(Br)cc5)s4)n3)c2)CC1` in this assay.
# output NO

# input Returns: the outcome recorded for Cc1cc(C)c2c(c1)N(C)c1ncnc(-n3cnc4cc(C)ccc43)c1CC2C (stereo unspecified) in this assay.
# output YES

FYI, the data here is from PubChem BioAssay (NCI).
